# TARGET OR TEST SYSTEM: Estrogen receptor (Homo sapiens, UniProt Q92731+P03372)
# PROCEDURE SUMMARY: Inhibition of estrogen receptor positive human breast carcinoma (MCF-7) cell proliferation
# Format: functional
Entries whose IC50 is below 20 µM take condition met; entries at or above 20 µM take condition not met.

INPUT: Please check: IC50 for c1ccc(C2=C(c3ccc(OCCN4CCOCC4)cc3)c3ccccc3OCC2)cc1 , strictly under 20 µM or not?
OUTPUT: condition met

INPUT: Does CN(C)CCOc1ccc(C2=C(c3cccc([N+](=O)[O-])c3)CCOc3ccccc32)cc1 have IC50 strictly under 20 µM?
OUTPUT: condition not met

INPUT: Determine whether this compound shows IC50 lower than 20 µM (ties excluded): Cc1cccc(C2=C(c3ccc(OCCN(C)C)cc3)c3ccccc3OCC2)c1
OUTPUT: condition not met

INPUT: Just wondering, is IC50 of CCN(CC)CCOc1ccc(C2=C(c3ccccc3)CCOc3ccccc32)cc1 below 20 µM?
OUTPUT: condition met

INPUT: Does CN(C)CCOc1ccc(C2=C(c3ccc(Cl)cc3)CCOc3ccccc32)cc1 have IC50 strictly under 20 µM?
OUTPUT: condition met

* * *

# TARGET OR TEST SYSTEM: Estrogen receptor (Homo sapiens, UniProt Q92731+P03372)
# PROCEDURE SUMMARY: Inhibition of estrogen receptor positive human breast carcinoma (MCF-7) cell proliferation
# Assay type: functional
For each of the compounds below, state its IC50.
Report only the number, with the unit µM understood.

INPUT: Tell me the measured IC50 of COc1cccc(C2=C(c3ccc(OCCN(C)C)cc3)c3ccccc3OCC2)c1 , please.
OUTPUT: 56.6

INPUT: Data request, read-out IC50, for COc1ccccc1C1=C(c2ccc(OCCN(C)C)cc2)c2ccccc2OCC1
OUTPUT: 11.7

INPUT: State the recorded IC50 for this entry: CN(C)CCOc1ccc(C2=C(c3ccccc3)CCOc3ccccc32)cc1
OUTPUT: 16.2
